# target_entity: MELK (Homo sapiens, UniProt Q14680)
# Sequence (Q14680 whole entry, looked up): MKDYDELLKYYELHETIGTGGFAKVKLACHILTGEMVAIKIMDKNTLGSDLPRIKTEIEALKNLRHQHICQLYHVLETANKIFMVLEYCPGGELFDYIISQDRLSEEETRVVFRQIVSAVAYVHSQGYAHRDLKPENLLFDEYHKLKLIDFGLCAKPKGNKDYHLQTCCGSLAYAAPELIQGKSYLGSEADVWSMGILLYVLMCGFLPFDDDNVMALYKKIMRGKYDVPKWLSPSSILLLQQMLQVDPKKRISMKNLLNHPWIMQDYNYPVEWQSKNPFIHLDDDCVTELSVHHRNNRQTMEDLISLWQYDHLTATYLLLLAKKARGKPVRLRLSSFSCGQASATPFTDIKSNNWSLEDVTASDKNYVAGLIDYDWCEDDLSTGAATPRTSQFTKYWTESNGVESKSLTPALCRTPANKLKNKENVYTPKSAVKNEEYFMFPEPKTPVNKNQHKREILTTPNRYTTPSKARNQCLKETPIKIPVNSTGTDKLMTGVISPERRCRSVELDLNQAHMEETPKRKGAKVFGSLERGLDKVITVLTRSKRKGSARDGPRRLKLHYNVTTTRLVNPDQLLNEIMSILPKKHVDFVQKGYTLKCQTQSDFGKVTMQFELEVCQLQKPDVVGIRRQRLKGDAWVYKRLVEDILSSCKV
# assay_summary: Kinase assay: MELK activity, phosphorylation of FITC-labeled histone H3 peptide measured by IMAP fluorescence polarization
# Assay type: biochemical
# study_conditions: read-out: IC50 (μM) (kinase assay)
Counter-ions that a name gives are not always drawn.
# maps each entry to its IC50
property_label: IC50 (µM)

                                   compound                        target_entity  property_label  readout_units  value_measured
0  COc1cc(-c2ccc3ncc(C(=O)C4CC4)c(N[C@H]4CC[C@H](CN5CCC(N(C)C)C5)CC4)c3c2)cc(Cl)c1O (stereo partly shown)  MELK (Homo sapiens, UniProt Q14680)            IC50             µM          0.0039
1  CNC1CCN(c2ccc(Nc3c(C(=O)C4CC4)cnc4ccc(-c5cc(F)c(O)c(Cl)c5)cc34)cn2)C1 (stereo not shown) [Example 789, trihydrochloride]  MELK (Homo sapiens, UniProt Q14680)            IC50             µM          0.0028
2  CN(C)C1CCN(c2ccc(Nc3c(C(=O)C4CC4)cnc4ccc(-c5cc(Cl)c(O)c(Cl)c5)cc34)cn2)C1 (stereo not shown)  MELK (Homo sapiens, UniProt Q14680)            IC50             µM          0.0047
3  COc1cc(-c2ccc3ncc(C(=O)C4CC4)c(Nc4ccc(NC5CCCNC5)nc4)c3c2)cc(Cl)c1O (stereo not shown)  MELK (Homo sapiens, UniProt Q14680)            IC50             µM          0.0025
